System: Ruminococcus gnavus DSM 108212
Test: fold change of 2-Phenylethylamine concentration vs plate DMSO controls (fold change (ratio)); higher = more amine produced, active = hit call of the paper (significant change in both replicates, either direction)
Conditions: incubation time: 27 h, anaerobic, 37 °C
Structures can show the parent of a compound that is named as a salt.
As shown below, each of these compounds has a reported fold change of 2-Phenylethylamine concentration value.
Kindly provide the number alone.

COMPOUND	TESTED TARGET	VALUE REPORTED
CCn1cc(C(=O)O)c(=O)c2cc(F)c(N3CCNC(C)C3)c(F)c21 (centres undefined) [Lomefloxacin hydrochloride] (20 µM)	Ruminococcus gnavus DSM 108212	1.03
N#CC(c1ccc(Cl)cc1)c1c(Cl)cc(-n2ncc(=O)[nH]c2=O)cc1Cl (centres undefined) [Diclazuril] (20 µM)	Ruminococcus gnavus DSM 108212	0.81
C=CCc1ccc(OC)c(OC)c1 [Methyleugenol] (20 µM)	Ruminococcus gnavus DSM 108212	1.02
NCCCC(O)(P(=O)(O)O)P(=O)(O)O [Alendronate sodium] (20 µM)	Ruminococcus gnavus DSM 108212	1.05
O=[N+]([O-])c1ccc(O)c2ncccc12 [Nitroxoline] (20 µM)	Ruminococcus gnavus DSM 108212	0.766

Value of fold change of 2-Phenylethylamine concentration reported for the compound Cc1ccccc1C(OCCN(C)C)c1ccccc1 (centres undefined) [Orphenadrine hydrochloride] (20 µM) is 1.16

Value of fold change of 2-Phenylethylamine concentration reported for the compound O=C(O)c1ccccc1OP(=O)(O)O [Fosfosal] (20 µM) is 1.04

Value of fold change of 2-Phenylethylamine concentration reported for the compound COc1cc(NS(=O)(=O)c2ccc(N)cc2)ncn1 [Sulfamonomethoxine] (20 µM) is 0.915

Value of fold change of 2-Phenylethylamine concentration reported for the compound O=C(O)Cc1ccc(-c2ccccc2)cc1 [Felbinac] (20 µM) is 1.01
